Recorded composite z-score values for a group of compounds are listed next.
- Experiment Notes: small-molecule microarray binders of probe aShh, primary screen, biochemical, biotinylated probe, 635/667 nm fluorescence (AID 1114);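 also: probe is biotin-labelled aShh protein from a stem cell growth factor screen; measures binding of labelled protein to compounds printed on the slide; score merges feature fluorescence at 667 nm with signal-to-noise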
- Conditions Used: higher = more signal
Measure: composite z-score

>  <Compound>
COCCOC(=O)N1C(=O)[C@@]2(c3cc(C#CCNC(N)=O)ccc31)[C@H](C(=O)Nc1nc3ccccc3s1)[C@H]1C(=O)O[C@H](c3ccccc3)[C@H](c3ccccc3)N1[C@@H]2c1ccc(O)cc1

>  <Measure>
composite z-score

>  <Numeric Value>
0.0483

$$$$
>  <Compound>
O=C1O[C@H](c2ccccc2)[C@H](c2ccccc2)N2[C@H]1[C@@H](C(=O)Nc1nc3ccccc3s1)[C@]1(C(=O)Nc3ccccc31)[C@H]2c1ccccc1OCCO

>  <Measure>
composite z-score

>  <Numeric Value>
-0.0289

$$$$
>  <Compound>
CC(C)C[C@H]1NC(=O)CNC(=O)[C@@]23C(=O)N[C@@H](Cc4ccccc4)C2[C@H](C)[C@@]2(C)O[C@H]2C3/C=C/C/C=C\CNC1=O (some centres not stated)

>  <Measure>
composite z-score

>  <Numeric Value>
-0.221

$$$$
>  <Compound>
COCCOC(=O)N1C(=O)[C@@]2(c3cc(C#CCNC(N)=O)ccc31)[C@H](c1ccc(O)cc1)N1[C@H](c3ccccc3)[C@H](c3ccccc3)OC(=O)[C@H]1[C@@H]2C(=O)N1CCc2cc(OC)c(OC)cc2C1

>  <Measure>
composite z-score

>  <Numeric Value>
-0.167

$$$$
>  <Compound>
COc1c(C)cc(-c2cc3c(c(CCc4ccccc4)n2)[Si](C(C)C)(C(C)C)O[C@H]3c2ccccc2)cc1C

>  <Measure>
composite z-score

>  <Numeric Value>
0.0008

$$$$
>  <Compound>
C=C(C(=O)CC[C@@H](OC(=O)c1ccccc1-c1ccccc1C(=O)O)c1ccc(OCCO)cc1)C(C)C

>  <Measure>
composite z-score

>  <Numeric Value>
0.108

$$$$
>  <Compound>
CCOC(=O)C[C@H]1[C@H](OC(=O)c2ccc(-c3ccccc3)cc2)[C@@H](NC(=O)c2ccc(-c3ccccc3)cc2)c2cc(OCCCO)ccc2N1C(=O)c1ccccc1

>  <Measure>
composite z-score

>  <Numeric Value>
0.0278

$$$$
>  <Compound>
C=C(C(=O)CC[C@@H](OC(=O)c1cccnc1)c1cccc(OCCO)c1)C(C)C

>  <Measure>
composite z-score

>  <Numeric Value>
-0.123

$$$$
>  <Compound>
COC(=O)[C@@]1(Cc2ccc(F)cc2)[C@H]2c3cc(C(=O)N(C)C)n(CCF)c3C[C@H]2CN1C(=O)c1ccccc1

>  <Measure>
composite z-score

>  <Numeric Value>
0.337

$$$$
>  <Compound>
C[C@]12C(=O)N(CCO)[C@@H]3C(=O)N(c4ccc(Cl)cc4)CC=CC31O[C@@H]1/C=C\CCCOC(=O)C12 (some centres not stated)

>  <Measure>
composite z-score

>  <Numeric Value>
-0.154

$$$$
>  <Compound>
COC(=O)c1ccc(OC)c(/C=C\CC(OC(=O)c2ccncc2)c2ccccc2)c1 (configuration not stated)

>  <Measure>
composite z-score

>  <Numeric Value>
-0.206

$$$$
>  <Compound>
COc1ccc(CCNC(=O)[C@@H]2c3ccccc3C(=O)N(C(C)C)[C@H]2c2ccc(CO)cc2)cc1

>  <Measure>
composite z-score

>  <Numeric Value>
-0.209

$$$$
>  <Compound>
C=CCOC(=O)[C@H]1[C@@H]2C(=O)O[C@@H](c3ccccc3)[C@@H](c3ccccc3)N2[C@@H](c2ccc(OCCOC(=O)[C@@H]3C[C@@H]4C(=O)N[C@@H](Cc5ccccc5)C(=O)N4[C@@H]3c3ccc(O)cc3)cc2)[C@]12C(=O)Nc1ccc(I)cc12

>  <Measure>
composite z-score

>  <Numeric Value>
-0.154

$$$$
>  <Compound>
O=C1c2ccccc2[C@@]2(Cc3ccccc3N(CC(F)(F)F)C2=O)[C@H](c2ccc(CO)cc2)N1Cc1ccccc1

>  <Measure>
composite z-score

>  <Numeric Value>
0.0178

$$$$
>  <Compound>
C=C(COC)C(=O)CC[C@H](OC(C)=O)c1ccccc1OCCO

>  <Measure>
composite z-score

>  <Numeric Value>
-0.223

$$$$
>  <Compound>
COC(=O)C(CC#Cc1ccc2c(c1)[C@]1(C(=O)N2)[C@H](C(N)=O)[C@H]2C(=O)O[C@H](c3ccccc3)[C@H](c3ccccc3)N2[C@@H]1c1ccccc1OCCO)C(=O)OC

>  <Measure>
composite z-score

>  <Numeric Value>
-0.291

$$$$
>  <Compound>
Cc1ccc(S[C@]2(C(=O)NC3CC3)CC(=O)N(C3Cc4ccccc4C3)[C@@H]2c2ccc(CO)cc2I)cc1

>  <Measure>
composite z-score

>  <Numeric Value>
-0.375

$$$$
>  <Compound>
CS(=O)(=O)CCOC(=O)C1=CC(CCCO)=CC(C2CC2)N(Cc2sc3ccccc3c2Cl)C=C1C(=O)OCCS(C)(=O)=O (configuration not stated)

>  <Measure>
composite z-score

>  <Numeric Value>
0.214

$$$$
>  <Compound>
CCCCC=C[C@@H](NC(=O)C(C)(C)C)c1ccccc1

>  <Measure>
composite z-score

>  <Numeric Value>
0.54

$$$$
>  <Compound>
CC(C)c1ccc(NN2C(C(O)c3ccccc3)C=CC3C(=O)N(c4ccccc4)C(=O)C32)cc1 (configuration not stated)

>  <Measure>
composite z-score

>  <Numeric Value>
0.171

$$$$
>  <Compound>
C=C(CCCC)/C(=C/C[C@@H](OC(C)=O)c1cccc(OCCO)c1)c1cc(C(=O)OC)ccc1OC

>  <Measure>
composite z-score

>  <Numeric Value>
0.111

$$$$
>  <Compound>
COCCOC(=O)N1C(=O)[C@@]2(c3cc(C#CCC(C(=O)OC)C(=O)OC)ccc31)[C@H](C(=O)N1CCc3cc(OC)c(OC)cc3C1)[C@H]1C(=O)O[C@H](c3ccccc3)[C@H](c3ccccc3)N1[C@@H]2c1ccccc1OCCO

>  <Measure>
composite z-score

>  <Numeric Value>
1.57

$$$$
>  <Compound>
C=CC[C@H](O)c1ccc(O)c(F)c1

>  <Measure>
composite z-score

>  <Numeric Value>
-0.138

$$$$
>  <Compound>
C=CC[C@]1(C(N)=O)N=C(c2ccc(OCCCO)cc2)O[C@H]1c1ccccc1N=[N+]=[N-]

>  <Measure>
composite z-score

>  <Numeric Value>
0.0611

$$$$
>  <Compound>
COc1ccc(C(=O)Nc2ccc(CN3C(=O)[C@]4(O[C@H](CC(=O)N(CCO)Cc5ccccc5)[C@@H]([Si](C)(C)c5ccc(OC)cc5)[C@@H]4C)c4ccccc43)cc2)cc1

>  <Measure>
composite z-score

>  <Numeric Value>
0.108

$$$$
>  <Compound>
COc1ccc([Si](C)(C)[C@H]2[C@H](CC(=O)N3CCC[C@H]3CO)O[C@@]3(C(=O)N(C)c4c(Br)cc(C)cc43)[C@@H]2C)cc1

>  <Measure>
composite z-score

>  <Numeric Value>
1.28

$$$$
>  <Compound>
O=C1OCCC/C=C\[C@H]2OC34C=CCN(Cc5ccccc5)C(=O)[C@H]3N(CCO)C(=O)[C@@H]4C12 (some centres not stated)

>  <Measure>
composite z-score

>  <Numeric Value>
-0.0709

$$$$
